B1: library; numbered along this chain (parent)
chain: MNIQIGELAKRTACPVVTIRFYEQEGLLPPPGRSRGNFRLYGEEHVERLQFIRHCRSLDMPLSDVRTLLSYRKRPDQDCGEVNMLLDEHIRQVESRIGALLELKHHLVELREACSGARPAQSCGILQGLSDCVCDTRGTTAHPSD

- Variants of: B1
- Method notes: sfGFP reporter fluorescence (15 h) (µM FITC); higher = stronger transcriptional activation
- Recorded conditions: library round: Round 1; ligand: 1 µM Pb
Result type: sfGFP reporter fluorescence
Lab note: record just the number, no unit beside it.

Exam item: So what's the measured sfGFP reporter fluorescence for this one? MNIQIGELAKRTACPVVTIRFYEQEGLLPPPGRSRGNFRLYGEEHVERLQFIRHCRSLDMPLSDVRTLLSYRKRPDQDCGEVNMLLDEHIRQVESRIGALLELKHHCVQLREACSGARPAQSCGILQILSDCVCDTRGTTAHPSD [L107C E109Q G128I]
Marked response: 1.09

Exam item: So what's the measured sfGFP reporter fluorescence for this one? MNIQIGELAKRTACPVVTIRFYEQEGLLPPPGRSRGNFRLYGEEHVERLQFIRHCRSLDLPLSDVRTLLSYRKRPDQDCGEVNMLLDEHIRQVESRIGALLELKHHLVELREACSGARPAQSCGILQGLSDCVCATRGTTAHPSD [M60L D135A]
Marked response: 0.258

Exam item: So what's the measured sfGFP reporter fluorescence for this one? MNIQIGELAKRTACPVVTIRFYEQEGLLPPPGRSRGNFRLYGEEHVERLQFIRHCRSLDMPLSDVRTLLSYRKRPDQDCGEVNMLLDEHIRQVESRIGALLELKHHLLELREALSGARPAQSCGILQGLSDCVCDTRGTTAHPSD [V108L C114L]
Marked response: 0.0571

Exam item: So what's the measured sfGFP reporter fluorescence for this one? MNIQIGELAKRTACPVVTIRFYEQEGLLPPPGRSRGNFRLYGEEHVERLQFIRHCRSLDMNLSDVRTLLSYRKRPDQDCGEVNMLLDEHIRQVESAIGALLELKHHLVELREACSGARPAQSCGILQGLSDCVCDTRGTTAHPSD [P61N R96A]
Marked response: 0.0876

Exam item: So what's the measured sfGFP reporter fluorescence for this one? MNIQIGELAKRTACPVVTIRFYEQEGLLPPPGRSRGNFRLYGEEHVERLQFIRHCRSLDMPLSDVRTLLSYRKRPDQDCGEVNMILDEHIRQVESRIGALLELKHHLVELREACSGARPAQSCGILQGLSDCVCDTRGTTAHMSD [L85I P143M]
Marked response: 0.0691

Exam item: So what's the measured sfGFP reporter fluorescence for this one? MNIQIGELAKRTACPVVTIRFYEQEGLLPPPGRSRGNFRLYGEEHVERLQFIRHCRSLDMPLSDVRTLLSYRKRPDQDCGEVNMLLDEHIRQVESRSGALLELKHHLVELREACSGARPAQSCGILQILSDCVCDTRGTTAHPSD [I97S G128I]
Marked response: 0.136

Exam item: So what's the measured sfGFP reporter fluorescence for this one? MNIQIGELAKRTACPVVTIRFYEQEGLLPPPGRSRGNFRLYGEEHVERLQFIRHCRSLDMPLSDVRTLLSYRKRPDQDCGEVTMLLDEHIRQVESRIGALLELKHHLVELREACSGARPAQSCGILQGLSCCVCDTRGTTAHPSD [N83T D131C]
Marked response: 0.0738

Exam item: So what's the measured sfGFP reporter fluorescence for this one? MNIQIGELAKRTACPSVTIRFYEQEGLLPPPGRSRGNFRLYGEEHVERLQFIRHCRSLDMNLSDVRTLLSYRKRPDQDCGEVNMLLDEHIRQVESRIGALLELKHHLVELREACSGARPAQSCGILQGLSDCVCDTRGTTAHPSD [V16S P61N]
Marked response: 0.114

Exam item: So what's the measured sfGFP reporter fluorescence for this one? MNIQIGELAKRTACPVVTIRFYEQEGLLPPPGRSRGNFRLYGEEHVERLQFIRHCRSLDMPLSDVRTLLSYRKRPDQDCGEVTMLLDEHIRQVESRIGALLELKHHLVELREACSGARPAQSCGILQGLSDCVLDTRGTTAHPSD [N83T C134L]
Marked response: 0.0739

Exam item: So what's the measured sfGFP reporter fluorescence for this one? MNIQIGELAKRTACPVVTIRFYEQEGLLPPPGRSRGNFRLYGEEHVERLQFIRHCRSLDMPLSDVRTLLSYRKRPDQDCGEVNMLLDEHLRQVESRIGALLELKHHLVELREACSGARPAQSCGILQTLSDCVCATRGTTAHPSD [I90L G128T D135A]
Marked response: 0.0679

Exam item: So what's the measured sfGFP reporter fluorescence for this one? MNIQIGELAKRTACPVVTIRFYEQEGLLPPPGRSRGNFRLYGEEHVERLQFIRHCRSLDMPLSDVRTLLSYRKRPDQDCGEVSMLLDEHIRQVESRIGALLELKHHLVELRLACSGARPAQSCGILQGLSDCVCDTRGTTAHPSD [N83S E112L]
Marked response: 0.0759

Exam item: So what's the measured sfGFP reporter fluorescence for this one? MNIQIGELAKRTACPVVTIRFYEQEGLLPPPGRSRGNFRLYGEEHVERLQFIRHCRSLDMPLSDVRTLLSYRKRPDQDCGEVNMLLDEHIRQVFSRIGALLELVHHLVELREACSGARPAQSCGILQHLSDCVCDTRGTTAHPSD [E94F K104V G128H]
Marked response: 0.0647

Exam item: So what's the measured sfGFP reporter fluorescence for this one? MNIQIGELAKRTACPVVTIRFYEQEGLLPPPGRSRGNFRLYGEEHVERLQFIRHCRSLDMPLSDVRTLLSYRKRPDQDCGEVNMLLDEHIRQVESRIGALLELKHHCVELREACSGARPAQSCGILQILSDCVCDTRGTTAHASD [L107C G128I P143A]
Marked response: 1.09

Exam item: So what's the measured sfGFP reporter fluorescence for this one? MNIQIGELAKRTACPVVTIRFYEQEGLLPPPGRSRGNFRLYGEEHVERLQFIRHCRSLDMPLSDVRTLLSYRKRPDQDCGEVNMLLDEHIRQVESRIGALLELKHHCVELREACSGARPAQSCGILQHLSDCVCDTRGTTAHPSD [L107C G128H]
Marked response: 0.409

Exam item: So what's the measured sfGFP reporter fluorescence for this one? MNIQIGELAKRTACPVVTIRFYEQEGLLPPPGRSRGNFRLYGEEHVERLQFIRHCRSLDMPLSDVRTLLSYRKRPDQDCGEVNMLLDEHIRQVESRIGALLELKHHLVALLEACSGARPAQSCGILQGLSDCVCDTRGTTAHPSD [E109A R111L]
Marked response: 0.0688

Exam item: So what's the measured sfGFP reporter fluorescence for this one? MNIQIGELAKRTACPVVTIRFYEQEGLLPPPGRSRGNFRLYGEEHVERLQFIRHCRSLDMPLSDVRTLLSYRKRPDQDFGEVNMLLDEHIRQVESRIGALLELKHHLVELREACSGARPAQSCGILQMLSDCVCDTRGTTAHPSD [C79F G128M]
Marked response: 0.0606

Exam item: So what's the measured sfGFP reporter fluorescence for this one? MNIQIGELAKRTACPVVTIRFYEQEGLLPPPGRSRGNFRLYGEEHVERLQFIRHCRSLDLPLSKVRTLLSYRKRPDQDCGAVNMLLDEHIRQVESRIGALLELKHHLVELAEACSGARPAQSCGILQGLSDCVCDTRGTTAHPSD [M60L D64K E81A R111A]
Marked response: 1.37

Exam item: So what's the measured sfGFP reporter fluorescence for this one? MNIQIGELAKRTACPVVTIRFYEQEGLLPPPGRSRGNFRLYGEEHVERLQFIRHCRSLDMPLSDVRTLLSYRKRPDQDCGEVNMYLDEHIRQVESRIGALLELVHHLVELREACSGARPAQSCGILQGLSDCVCDTRGTTAHPSD [L85Y K104V]
Marked response: 0.0629

Exam item: So what's the measured sfGFP reporter fluorescence for this one? MNIQIGELAKRTACPVVTIRFYEQEGLLPPPGRSRGNFRLYGEEHVERLQFIRHCRSLDMPLSDVRTLLSYRKRPDQDCGEVNMLLDEHIRQVESRIGALLELKHHLVELVEACSGARPAQSCGILQGLSDCVCDTRGTTAHTSD [R111V P143T]
Marked response: 0.0715

Exam item: So what's the measured sfGFP reporter fluorescence for this one? MNIQIGELAKRTACPVVTIRFYEQEGLLPPPGRSRGNFRLYGEEHVERLQFIRHCRSLDMPISDVRTLLSYRKRPDQDCGEVNMLLDEHIRQVESRIGALLELVHHLVELREACSGARPAQSCGILQGLSDCVCDTRGTTAHPSD [L62I K104V]
Marked response: 0.109

Exam item: So what's the measured sfGFP reporter fluorescence for this one? MNIQIGELAKRTACPVVTIRFYEQEGLLPPPGRSRGNFRLYGEEHVERLQFIRHCRSLDMPLSDVRTLLSYRKRPDQDCGEVNMLLDEHIRQVESRIGALLELKHHLVELREACSGARPAQSCGILQGLSACVCETRGTTAHPSD [D131A D135E]
Marked response: 0.0805

Exam item: So what's the measured sfGFP reporter fluorescence for this one? MNIQIGELAKRTACPVVTIRFYEQEGLLPPPGRSRGNFRLYGEEHVERLQFIRHCRSLDMPLSDVRTLLSYRKRPDQDCGEVYMLLDEHIRQVESRIGALLELKHHLVELLEACSGARPAQSCGILQGLSDCVCDTRGTTAHPSD [N83Y R111L]
Marked response: 0.0694
